assay: Pharmacokinetic study of single intravenous and oral administration in mouse; assay type: in vivo; conditions: plasma, 2 mg/kg, IV, read-out: Vss
measured_parameter: Vd (L/kg)

compound="O=C1CCC(N2Cc3cc(C(=O)N[C@H](c4ccc(F)cn4)C4(F)CCC4)ccc3C2=O)C(=O)N1 (stereo in doubt) [Compound 86]" measured_parameter=Vd reported_result=0.87

(a) O=C1CCC(N2Cc3cc(C(=O)N[C@H](c4ccc(F)cc4F)C4CCC4)ccc3C2=O)C(=O)N1 (stereo in doubt) [Compound 41]
(b) O=C1CC[C@H](N2Cc3cc(C(=O)N[C@H](c4ccc(Cl)cn4)C4CCC4)ccc3C2=O)C(=O)N1 (single isomer, unassigned) [Compound 82]
Thinking about recorded Vd values, which is higher, a or b ? Lab note: record the label of whichever item you select. a

----------
target: HiBiT tagged CK1α (Homo sapiens, UniProt P48729+Q96SW2); experiment: CK1α degradation assay (HiBiT assay); assay type: cell-based; details: HT-1080 cells, 20 hours; concentration at 50% CK1α degradation
Sequence (P48729 whole entry): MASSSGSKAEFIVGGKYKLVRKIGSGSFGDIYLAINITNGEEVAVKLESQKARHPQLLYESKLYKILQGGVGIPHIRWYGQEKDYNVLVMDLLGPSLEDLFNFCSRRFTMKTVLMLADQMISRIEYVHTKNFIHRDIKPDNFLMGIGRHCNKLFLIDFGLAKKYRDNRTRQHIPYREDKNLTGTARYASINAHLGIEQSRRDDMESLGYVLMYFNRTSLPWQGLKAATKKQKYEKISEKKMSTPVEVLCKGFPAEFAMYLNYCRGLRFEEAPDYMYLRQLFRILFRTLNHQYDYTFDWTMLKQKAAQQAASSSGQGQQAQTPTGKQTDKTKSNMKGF
Sequence (Q96SW2 whole entry): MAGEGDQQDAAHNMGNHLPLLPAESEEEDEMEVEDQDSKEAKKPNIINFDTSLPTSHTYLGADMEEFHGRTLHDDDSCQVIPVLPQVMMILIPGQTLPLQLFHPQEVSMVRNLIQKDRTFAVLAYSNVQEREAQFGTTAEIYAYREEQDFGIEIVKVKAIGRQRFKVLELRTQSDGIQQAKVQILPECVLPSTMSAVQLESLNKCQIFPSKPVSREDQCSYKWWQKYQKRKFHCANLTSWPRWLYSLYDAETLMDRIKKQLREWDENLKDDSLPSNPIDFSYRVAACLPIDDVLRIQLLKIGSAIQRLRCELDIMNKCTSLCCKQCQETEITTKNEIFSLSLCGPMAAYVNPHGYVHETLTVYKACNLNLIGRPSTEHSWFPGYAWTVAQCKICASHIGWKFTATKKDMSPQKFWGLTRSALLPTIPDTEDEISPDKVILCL
Sequence (Q16531 whole entry partner): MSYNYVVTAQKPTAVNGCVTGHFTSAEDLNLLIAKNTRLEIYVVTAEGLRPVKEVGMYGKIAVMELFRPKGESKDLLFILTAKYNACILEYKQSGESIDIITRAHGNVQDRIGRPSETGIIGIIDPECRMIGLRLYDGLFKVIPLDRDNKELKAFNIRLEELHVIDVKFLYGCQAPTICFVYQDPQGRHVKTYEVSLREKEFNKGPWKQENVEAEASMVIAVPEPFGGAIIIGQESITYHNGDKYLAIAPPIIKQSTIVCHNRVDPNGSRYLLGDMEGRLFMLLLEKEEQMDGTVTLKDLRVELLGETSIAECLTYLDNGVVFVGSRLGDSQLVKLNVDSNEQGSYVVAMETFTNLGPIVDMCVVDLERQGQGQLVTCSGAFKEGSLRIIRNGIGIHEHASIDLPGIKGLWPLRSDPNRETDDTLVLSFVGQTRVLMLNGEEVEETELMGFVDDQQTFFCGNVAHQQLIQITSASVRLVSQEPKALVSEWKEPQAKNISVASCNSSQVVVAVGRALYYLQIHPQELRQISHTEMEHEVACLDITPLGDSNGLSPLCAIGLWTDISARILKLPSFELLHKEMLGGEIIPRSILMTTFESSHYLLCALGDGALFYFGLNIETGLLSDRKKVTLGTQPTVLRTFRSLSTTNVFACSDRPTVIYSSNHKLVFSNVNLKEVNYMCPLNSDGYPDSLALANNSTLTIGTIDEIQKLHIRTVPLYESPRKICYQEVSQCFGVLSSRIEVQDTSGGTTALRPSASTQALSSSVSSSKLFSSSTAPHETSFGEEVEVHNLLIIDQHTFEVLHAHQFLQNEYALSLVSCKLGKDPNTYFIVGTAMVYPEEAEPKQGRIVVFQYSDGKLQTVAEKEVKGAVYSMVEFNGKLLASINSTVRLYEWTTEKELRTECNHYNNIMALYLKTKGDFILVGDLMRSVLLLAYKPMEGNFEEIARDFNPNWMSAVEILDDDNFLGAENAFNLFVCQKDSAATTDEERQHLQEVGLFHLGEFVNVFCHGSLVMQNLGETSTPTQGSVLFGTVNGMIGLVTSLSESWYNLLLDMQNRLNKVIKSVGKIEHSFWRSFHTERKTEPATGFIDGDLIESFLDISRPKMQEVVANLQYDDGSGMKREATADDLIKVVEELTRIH
measured_parameter: DC50 (nM)

compound="O=C1CCC(N2Cc3cc(C(=O)NC(c4c(F)cccc4Cl)C4CC4)ccc3C2=O)C(=O)N1 (stereo not drawn)" measured_parameter=DC50 reported_result=57.8

(a) O=C1CCC(N2Cc3cc(C(=O)N[C@H](c4ncc(Cl)cc4F)C4(F)CCC4)ccc3C2=O)C(=O)N1 (stereo in doubt)
(b) O=C1CCC(N2Cc3cc(C(=O)NC(c4c(F)cccc4F)C4CCC4)ccc3C2=O)C(=O)N1 (stereo not drawn)
Lab note: check whether a or b has the lower measured DC50. Lab note: record the label of whichever item you select. b
(b: 79.7 nM, a: 148 nM)

----------
tested on: MV4-11 cells; test: MV4-11 cell proliferation assay (CTG cell viability); assay type: cell-based; details: Homo sapiens, 120 hours, read-out: CTG cell viability assay_MV4-11: IC50
measured_parameter: IC50 (nM)

compound="O=C1CCC(N2Cc3cc(C(=O)N[C@@H](c4ccc(F)cc4F)C4CCC4)ccc3C2=O)C(=O)N1 (stereo in doubt) [Compound 42]" value_unit=nM reported_result=420

(I) O=C1CCC(N2Cc3cc(C(=O)N[C@@H](c4ccc(F)cc4)C4CC(F)(F)C4)ccc3C2=O)C(=O)N1 (single isomer, unassigned) [Compound 5]
(II) O=C1CCC(N2Cc3cc(C(=O)N[C@H](c4ccc(F)cc4)C4CC(F)(F)C4)ccc3C2=O)C(=O)N1 (single isomer, unassigned) [Compound 6]
Lab note: check whether I or II has the lower measured IC50. Lab note: record the label of whichever item you select. I

----------
target: HiBiT tagged CK1α (Homo sapiens, UniProt P48729+Q96SW2); assay: CK1α degradation assay (HiBiT assay); type: cell-based; details: HT-1080, HT-1080 cells, 20 hours; maximum CK1α degradation
measured_parameter: Dmax (%)

molecule="O=C1CC[C@@H](N2Cc3cc(C(=O)N[C@H](c4ccc(Cl)cc4F)C4CCC4)ccc3C2=O)C(=O)N1 (racemic)" reported_result=56.5
molecule="O=C1CCC(N2Cc3cc(C(=O)N[C@@H](c4cccc(Cl)c4)C4CC4)ccc3C2=O)C(=O)N1 (stereo in doubt)" reported_result=59.3
molecule="Cc1cccc([C@@H](NC(=O)c2ccc3c(c2)CN(C2CCC(=O)NC2=O)C3=O)C2CC2)c1 (stereo in doubt)" reported_result=47.9
molecule="O=C1CC[C@@H](N2Cc3cc(C(=O)NC(c4ccc(F)c(F)c4)C4CCC4)ccc3C2=O)C(=O)N1 (single isomer, unassigned)" reported_result=68.6
molecule="O=C1CCC(N2Cc3cc(C(=O)NC(c4cccc(F)c4Cl)C4CC4)ccc3C2=O)C(=O)N1 (centres unmarked)" reported_result=69.8
molecule="O=C1CCC(N2Cc3cc(C(=O)N[C@H](c4ncc(Cl)cc4F)C4(F)CCC4)ccc3C2=O)C(=O)N1 (stereo in doubt)" reported_result=69
molecule="O=C1CCC(N2Cc3cc(C(=O)N[C@@H](c4ccc(F)cc4Cl)C4CC4)ccc3C2=O)C(=O)N1 (stereo in doubt)" reported_result=59.2
molecule="O=C1CCC(N2Cc3cc(C(=O)N[C@H](c4ccc(F)cn4)C4CCC4)ccc3C2=O)C(=O)N1 (stereo in doubt)" reported_result=67.2
